Each entry below carries its reported IC50.
Target: receptor binding sites with a high affinity for serotonin (5-HT1)
Assay: Displacement, by the derivatives S-CM-R, of the high affinity binding of [3H]5-HT in rat brain sections
Conditions: 2 nM [3H]5-HT, 60 min at 20° C, single IC50, read-out: IC50 (displacement of specific binding of [3H]5-HT)
Description: The distribution of the receptor binding sites with a high affinity for serotonin (5-HT1) is heterogeneous in the central nervous system of the rat (Pazos and Palacios, Brain Research, 346, 1985, p. 205-230; Segu et al., Brain Research, 384, 1986, p. 205-217). Furthermore, the content of subtypes of 5-HT1 sites varies according to the anatomical structure in question. The protocol for preparing the brain sections is common to all the studies which follow. […]
Report the value in nM with no unit label.

NCCc1c[nH]c2ccc(O)cc12 [5-HT, reference compound] = 2

// switching to the query molecule
Here `NCCc1c[nH]c2ccc(OCC(=O)O)cc12` was tested on receptor binding sites with a high affinity for serotonin (5-HT1), and its IC50 came to 1000

Cited source for all entries: patent US5298491A
